- Tested on: Cynomolgus T cell receptor on cynomolgus primary T cells (cynomolgus monkey); further: test concentration or dose not given here
- Assay info: cell-based or functional assay
% Lysis, T cell mediated MOLM-13 cell killing, cynomolgus primary T cells, E:T 10:1 for assorted binders
Please state the value followed by its unit.

# Binder, Result
records = [
    ("T017000631 (bispecific antibody, also called A0110056A10(E1D)-35GS-T0170056G05(L11V, G26Y, L34Y, M77T, K83R, V89L, F91Y, F95L, R97K, Y99W)-A) DVQLVESGGGLVQAGGSLRLSCAASGITSKINDMGWYRQTPGNYREWVASITATGTTNYRDSVKGRFTISRDNAKSTVYLQMNSLKPEDTTVYYCNTFPPISNFWGQGTLVTVSSGGGGSGGGGSGGGGSGGGGSGGGGSGGGGSGGGGSEVQLVESGGGVVQPGGSLRLSCVASYDVHKINFYGWYRQAPGKEREKVAHISIGDQTDYADSAKGRFTISRDESKNTVYLQMNSLRPEDTALYYCRALSKIWPYDYWGQGTLVTVSSA", "35%"),
]

*Q* Would you mind telling me what % Lysis, T cell mediated MOLM-13 cell killing, cynomolgus primary T cells, E:T 10:1 value was observed for T017000633 (bispecific antibody) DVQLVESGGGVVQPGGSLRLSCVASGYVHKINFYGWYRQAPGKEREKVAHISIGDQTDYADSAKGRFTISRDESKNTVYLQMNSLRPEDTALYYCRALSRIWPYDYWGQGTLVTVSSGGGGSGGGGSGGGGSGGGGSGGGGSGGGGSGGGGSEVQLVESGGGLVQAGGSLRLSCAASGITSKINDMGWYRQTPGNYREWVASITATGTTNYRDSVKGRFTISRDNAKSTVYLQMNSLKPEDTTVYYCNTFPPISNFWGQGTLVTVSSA ?
*A* 35%
